target: T1, SARS-CoV-2 spike trimer S (Wuhan, SmT1) (SARS-CoV-2 Wuhan); assay: SPR, antigen on chip
T1 construct: extracellular domain
readout kind: pKd
Would you please state pKd, meaning minus log10 of the concentration in mol/L, as a bare number?

Consider the worked cases shown below.
- binder: "NRCoV2-10 VHH (VHH) VHH: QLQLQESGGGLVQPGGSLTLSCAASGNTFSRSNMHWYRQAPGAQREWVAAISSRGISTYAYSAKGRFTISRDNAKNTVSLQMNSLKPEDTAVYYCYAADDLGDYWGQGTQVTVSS"
  pKd: 9.72
- binder: "NRCoV2-05 VHH (VHH) VHH: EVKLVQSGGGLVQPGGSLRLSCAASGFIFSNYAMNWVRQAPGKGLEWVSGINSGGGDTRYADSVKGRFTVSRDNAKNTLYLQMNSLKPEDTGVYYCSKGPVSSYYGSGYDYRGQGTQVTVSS"
  pKd: 8.76

Enquiry: Look up pKd: NRCoV2-SR04 VHH (VHH) VHH: QVQLVESGGGLVQAGGSLRLSCAASGRTFSSHTVGWYRQAPGKQRDLVAAISMGGNTNYADYADSVKGRFTISRDNAKNTLYLQMNSLKPEDTAVYYCNTAALVGNRLLPMATITWGQGTQVTVSS
Return: 9.85
